- ASSAY SYSTEM: Glutamate NMDA receptor; Grin1/Grin2b (Rattus norvegicus) (UniProt P35439+Q00960)
- RUN DESCRIPTION: Positive allosteric modulation of recombinant rat GluN1alpha/GluN2B receptor expressed in HEK293 cells assessed as potentiation of glutamate-induced current response at 100 uM at holding potential -60mV by whole cell voltage clamp method relative to control
- Assay type: cell-based
What Activity was measured for each of the following?

Prompt: Tell me measured Activity for CC(=O)[C@H]1CC[C@H]2[C@@H]3CC=C4C[C@@H](OS(=O)(=O)O)CC[C@]4(C)[C@H]3CC[C@]12C.c1ccncc1 please.
Response: 78%

Prompt: Tell me measured Activity for CC(=O)[C@H]1CC[C@H]2[C@@H]3CC=C4C[C@@H](OC(=O)CCCCCC(=O)O)CC[C@]4(C)[C@H]3CC[C@]12C please.
Response: 458%

Prompt: Tell me measured Activity for CC(=O)[C@H]1CC[C@H]2[C@@H]3CC=C4C[C@@H](OC(=O)CCCCC(=O)O)CC[C@]4(C)[C@H]3CC[C@]12C please.
Response: 614%

Prompt: Tell me measured Activity for CC(=O)[C@H]1CC[C@H]2[C@@H]3CC=C4C[C@@H](OC(=O)CCCC(=O)O)CC[C@]4(C)[C@H]3CC[C@]12C please.
Response: 460%

Prompt: Tell me measured Activity for CC(=O)[C@H]1CC[C@H]2[C@@H]3CC=C4C[C@@H](OC(=O)CCC(=O)O)CC[C@]4(C)[C@H]3CC[C@]12C [PREGNENOLONE SUCCINATE] please.
Response: 267%
